Molecular target: OmKAI2d3
Construct: soluble recombinant protein
Assay: isothermal titration calorimetry
Settings: suggested allosteric site
measurement_kind: pKd
Worth noting: pKd values are minus log10 of concentrations stated in mol/L.

For the compound shown here, CC/C=C\C[C@@H]1C(=O)C=C[C@@H]1CCCCCCCC(=O)O [cis-OPDA] , give the reported pKd. 4.70

* * *

Tested on: OmKAI2d10–OmSMAX1D1M
Construct: gene KAI2d10; KAI2d10 plus SMAX1 D1M domain only; ligand-induced complex in TR-FRET; borders and tags not given
Test: TR-FRET, ligand-induced KAI2d–SMAX1 D1M interaction
Assay type: biochemical, Orobanche minor
Settings: without rac-GR24; 300 min
measurement_kind: pEC50
Worth noting: pEC50 values are minus log10 of concentrations stated in mol/L.

Requested read-out pEC50, target or system OmKAI2d10–OmSMAX1D1M, entry CC/C=C\C[C@@H]1C(=O)C=C[C@@H]1CCCCCCCC(=O)O [cis-OPDA] 3.98
